Tested on: ATCC6872
run description: Resistance/susceptibility of strain ATCC6872 to substances (minimal medium, 1.7% agar)
Assay type: cell-based, Corynebacterium stationis
Items are presented alongside their recorded resistance.
Please respond with the number in µg/mL and leave the unit unwritten.

Consider the following illustrative entries.
compound string	target	endpoint unit	resistance
O=C(O)[C@@H]1CCN1	ATCC6872	µg/mL	5000
[N-]=[N+]=CC(=O)OC[C@H](N)C(=O)O	ATCC6872	µg/mL	25
COc1cc(Cc2cnc(N)nc2N)cc(OC)c1OC	ATCC6872	µg/mL	20

Pending molecule:
Record summary for `[H]/N=C(/N)N[C@H]1[C@H](O)[C@@H](O)[C@H](O[C@@H]2O[C@@H](C)[C@](O)(C=O)[C@H]2O[C@@H]2O[C@@H](CO)[C@H](O)[C@@H](O)[C@@H]2NC)[C@@H](N/C(N)=N\[H])[C@@H]1O` : reported resistance = 500
